Value source: patent US20240270821A1

Target: human glucagon receptor (human) (UniProt P47871)
Sequence (P47871 26-477): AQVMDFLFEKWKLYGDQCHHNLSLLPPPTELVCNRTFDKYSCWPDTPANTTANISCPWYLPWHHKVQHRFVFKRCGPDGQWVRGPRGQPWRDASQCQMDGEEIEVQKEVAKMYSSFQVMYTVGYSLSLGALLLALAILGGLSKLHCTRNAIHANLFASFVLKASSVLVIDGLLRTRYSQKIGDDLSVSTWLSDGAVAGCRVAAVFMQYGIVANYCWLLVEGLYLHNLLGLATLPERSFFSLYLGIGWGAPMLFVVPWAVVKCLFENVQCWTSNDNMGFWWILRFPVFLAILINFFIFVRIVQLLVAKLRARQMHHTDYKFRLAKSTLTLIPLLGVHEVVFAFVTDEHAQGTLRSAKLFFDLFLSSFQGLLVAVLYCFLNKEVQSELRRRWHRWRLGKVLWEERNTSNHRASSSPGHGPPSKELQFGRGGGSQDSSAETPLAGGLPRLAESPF
Assay: cell-based or functional assay
Criterion: cAMP Rel EC50 (in the presence of 1% HSA) strictly less than 400 nM. Met: satisfied. Not met: not satisfied.

input: Does the reported cAMP Rel EC50 (in the presence of 1% HSA) of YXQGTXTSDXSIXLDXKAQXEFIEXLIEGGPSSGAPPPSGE (Aib, alpha-methyl residues, 4Pal, Orn, D-Glu, lipidated Lys, amide; synthetic construct; SITE 2: note = 2-Aminoisobutyric Acid; SITE 6: note = alpha-methyl-2-fluoro-L-phenylalanine; SITE 10: note = 3-(4-Pyridyl)-L-alanine; SITE 13: note = alpha-methyl-leucine; SITE 16: note = L-ornithine; SITE 17: note = Lysine is chemically modified through conjugation of the epsil) [Example 616] stay below 400 nM?
output: not satisfied

input: Does the reported cAMP Rel EC50 (in the presence of 1% HSA) of YXQGTFTSDFSXXLDKKAQXAFIEWLLEGGSSSGAPPPSGH (Aib, Orn, αMeL; K acylated AEEA-γGlu-C18 diacid; C-amide; synthetic construct; SITE 2: note = 2-Aminoisobutyric Acid; SITE 12: note = L-ornithine; SITE 13: note = alpha-methyl-leucine; SITE 17: note = Lysine is chemically modified through conjugation of the epsilon-amino group of the Lysine side chain with (2-[2-(2-Amino-ethoxy)-ethoxy]-acetyl)-(gamma-Glu)) [Example 270] stay below 400 nM?
output: not satisfied

input: Does the reported cAMP Rel EC50 (in the presence of 1% HSA) of YXQGTFTSDFSXXLDKKAQXAFIEYLLEGGPSSGAPPPSGT (Aib, Orn, αMeL; (γGlu)2-C18 diacid on Lys; C-terminal amide; synthetic construct; SITE 2: note = 2-Aminoisobutyric Acid; SITE 12: note = L-ornithine; SITE 13: note = alpha-methyl-leucine; SITE 17: note = Lysine is chemically modified through conjugation of the epsilon-amino group of the Lysine side chain with (gamma-Glu)2-CO-(CH2)16-CO2H; SITE 20: note = 2-Am) [Example 260] stay below 400 nM?
output: satisfied

input: Does the reported cAMP Rel EC50 (in the presence of 1% HSA) of YXQGTFTSDFSKXLDKKAQXAFIEYLLAGGPSSGEPPPSSG (synthetic construct; SITE 2: note = 2-Aminoisobutyric Acid; SITE 13: note = alpha-methyl-leucine; SITE 17: note = Lysine is chemically modified through conjugation of the epsilon-amino group of the Lysine side chain with (2-[2-(2-Amino-ethoxy)-ethoxy]-acetyl)-(gamma-Glu)-CO-(CH2) 18-CO2H; SITE 20: n) [Example 7] stay below 400 nM?
output: not satisfied

input: Does the reported cAMP Rel EC50 (in the presence of 1% HSA) of YXQGTXTSDXXIXLDXKAQXEFIEXLVEGGPSSGEPPPESE (not fully specified; non-natural residues; AEEA-γGlu-diacid acylated Lys; C-terminal amide; synthetic construct; SITE 2: note = 2-Aminoisobutyric Acid; SITE 6: note = alpha-methyl-2-fluoro-L-phenylalanine; SITE 10: note = 3-(4-Pyridyl)-L-alanine; SITE 11: note = alpha-methyl-L-serine; SITE 13: note = alpha-methyl-leucine; SITE 16: note = L-ornithine; SITE 17: note = Lysine is chemically mo) [Example 1157] stay below 400 nM?
output: satisfied

input: Does the reported cAMP Rel EC50 (in the presence of 1% HSA) of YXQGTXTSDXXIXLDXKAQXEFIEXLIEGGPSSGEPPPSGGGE (non-natural residues; AEEA-γGlu-diacid acylated Lys; C-terminal amide; synthetic construct; SITE 2: note = 2-Aminoisobutyric Acid; SITE 6: note = alpha-methyl-L-phenylalanine; SITE 10: note = 3-(4-Pyridyl)-L-alanine; SITE 11: note = alpha-methyl-L-serine; SITE 13: note = alpha-methyl-leucine; SITE 16: note = L-ornithine; SITE 17: note = Lysine is chemically modified th) [Example 1169] stay below 400 nM?
output: satisfied

input: Does the reported cAMP Rel EC50 (in the presence of 1% HSA) of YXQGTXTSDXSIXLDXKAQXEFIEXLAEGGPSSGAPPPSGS (acylated lysine (γ-Glu)2 C18 diacid; non-natural residues; C-terminal amide; synthetic construct; SITE 2: note = 2-Aminoisobutyric Acid; SITE 6: note = alpha-methyl-2-fluoro-L-phenylalanine; SITE 10: note = 3-(4-Pyridyl)-L-alanine; SITE 13: note = alpha-methyl-leucine; SITE 16: note = L-ornithine; SITE 17: note = Lysine is chemically modified through conjugation of the epsil) [Example 646] stay below 400 nM?
output: not satisfied

input: Does the reported cAMP Rel EC50 (in the presence of 1% HSA) of YXQGTFTSDFSKXLDKKAQXAFIEYLLEGGPSSGAPPPGEG (synthetic construct; SITE 2: note = 2-Aminoisobutyric Acid; SITE 13: note = alpha-methyl-leucine; SITE 17: note = Lysine is chemically modified through conjugation of the epsilon-amino group of the Lysine side chain with (2-[2-(2-Amino-ethoxy)-ethoxy]-acetyl)2-(gamma-Glu)-CO-(CH2 )18-CO2H; SITE 20:) [Example 17] stay below 400 nM?
output: not satisfied

input: Does the reported cAMP Rel EC50 (in the presence of 1% HSA) of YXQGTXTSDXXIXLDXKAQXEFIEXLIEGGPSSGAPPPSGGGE (acylated Lys, C-terminal amide, non-natural residues; synthetic construct; SITE 2: note = 2-Aminoisobutyric Acid; SITE 6: note = alpha-methyl-2-fluoro-L-phenylalanine; SITE 10: note = 3-(4-Pyridyl)-L-alanine; SITE 11: note = alpha-methyl-L-serine; SITE 13: note = alpha-methyl-leucine; SITE 16: note = L-ornithine; SITE 17: note = Lysine is chemically mo) [Example 1180] stay below 400 nM?
output: satisfied

input: Does the reported cAMP Rel EC50 (in the presence of 1% HSA) of YXQGTXTSDXXILLDXKAQXXFIEYLIEGGPSSGEPPPEGAEE (non-natural residues, (γGlu)2-C18 diacid lysine acylation, C-terminal amide; synthetic construct; SITE 2: note = 2-Aminoisobutyric Acid; SITE 6: note = alpha-methyl-2-fluoro-L-phenylalanine; SITE 10: note = 3-(4-Pyridyl)-L-alanine; SITE 11: note = alpha-methyl-L-serine; SITE 16: note = L-ornithine; SITE 17: note = Lysine is chemically modified through conjugation of the epsi) [Example 604] stay below 400 nM?
output: not satisfied

input: Does the reported cAMP Rel EC50 (in the presence of 1% HSA) of YXQGTXTSDXSIXLDXKAQXEFIEXLLEGGPSSGAPPPSGS (non-natural residues; AEEA-γGlu-C18 diacid on Lys; C-terminal amide; synthetic construct; SITE 2: note = 2-Aminoisobutyric Acid; SITE 6: note = alpha-methyl-2-fluoro-L-phenylalanine; SITE 10: note = 3-(4-Pyridyl)-L-alanine; SITE 13: note = alpha-methyl-leucine; SITE 16: note = L-ornithine; SITE 17: note = Lysine is chemically modified through conjugation of the epsil) [Example 641] stay below 400 nM?
output: not satisfied

input: Does the reported cAMP Rel EC50 (in the presence of 1% HSA) of YXQGTFTSDFSXXLDKKAQXAFIEWLLEGGPSSGAPPPTGS (acylated Lys, C-terminal amide, non-natural residues; synthetic construct; SITE 2: note = 2-Aminoisobutyric Acid; SITE 12: note = L-ornithine; SITE 13: note = alpha-methyl-leucine; SITE 17: note = Lysine is chemically modified through conjugation of the epsilon-amino group of the Lysine side chain with (2-[2-(2-Amino-ethoxy)-ethoxy]-acetyl)-(gamma-Glu)) [Example 250] stay below 400 nM?
output: satisfied

input: Does the reported cAMP Rel EC50 (in the presence of 1% HSA) of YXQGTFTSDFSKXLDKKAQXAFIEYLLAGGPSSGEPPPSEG (Aib, αMeL; acyl on Lys; C-terminal amide; synthetic construct; SITE 2: note = 2-Aminoisobutyric Acid; SITE 13: note = alpha-methyl-leucine; SITE 17: note = Lysine is chemically modified through conjugation of the epsilon-amino group of the Lysine side chain with (2-[2-(2-Amino-ethoxy)-ethoxy]-acetyl)-(gamma-Glu)-CO-(CH2) 16-CO2H; SITE 20: n) [Example 22] stay below 400 nM?
output: not satisfied

input: Does the reported cAMP Rel EC50 (in the presence of 1% HSA) of YXQGTFTSDFSKXLDKKAQXAFIEYLLEGGPSSGAPPPGGS (synthetic construct; SITE 2: note = 2-Aminoisobutyric Acid; SITE 13: note = alpha-methyl-leucine; SITE 17: note = Lysine is chemically modified through conjugation of the epsilon-amino group of the Lysine side chain with (2-[2-(2-Amino-ethoxy)-ethoxy]-acetyl)-(gamma-Glu)-CO-(CH2) 18-CO2H; SITE 20: n) [Example 18] stay below 400 nM?
output: not satisfied

input: Does the reported cAMP Rel EC50 (in the presence of 1% HSA) of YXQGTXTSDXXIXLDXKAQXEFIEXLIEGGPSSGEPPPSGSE (non-natural residues; acylated Lys; C-terminal amide; synthetic construct; SITE 2: note = 2-Aminoisobutyric Acid; SITE 6: note = alpha-methyl-2-fluoro-L-phenylalanine; SITE 10: note = 3-(4-Pyridyl)-L-alanine; SITE 11: note = alpha-methyl-L-serine; SITE 13: note = alpha-methyl-leucine; SITE 16: note = L-ornithine; SITE 17: note = Lysine is chemically mo) [Example 1179] stay below 400 nM?
output: satisfied

input: Does the reported cAMP Rel EC50 (in the presence of 1% HSA) of YXQGTFTSDFSKXLDKKAQXAFIEYLLAGGPSSGEPPPSGEX (not fully specified; synthetic construct; SITE 2: note = 2-Aminoisobutyric Acid; SITE 13: note = alpha-methyl-leucine; SITE 17: note = Lysine is chemically modified through conjugation of the epsilon-amino group of the Lysine side chain with (2-[2-(2-Amino-ethoxy)-ethoxy]-acetyl)-(gamma-Glu)-CO-(CH2) 18-CO2H; SITE 20: n) [Example 33] stay below 400 nM?
output: not satisfied

input: Does the reported cAMP Rel EC50 (in the presence of 1% HSA) of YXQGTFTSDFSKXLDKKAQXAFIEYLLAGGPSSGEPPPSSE (synthetic construct; SITE 2: note = 2-Aminoisobutyric Acid; SITE 13: note = alpha-methyl-leucine; SITE 17: note = Lysine is chemically modified through conjugation of the epsilon-amino group of the Lysine side chain with (2-[2-(2-Amino-ethoxy)-ethoxy]-acetyl)-(gamma-Glu)-CO-(CH2) 18-CO2H; SITE 20: n) [Example 3] stay below 400 nM?
output: not satisfied

input: Does the reported cAMP Rel EC50 (in the presence of 1% HSA) of YXQGTXTSDXXIXLDXKAQXEFIEXLIEGGPPSXXPPPXSE (non-natural residues; acylated Lys; C-terminal amide; synthetic construct; SITE 2: note = 2-Aminoisobutyric Acid; SITE 6: note = alpha-methyl-2-fluoro-L-phenylalanine; SITE 10: note = 3-(4-Pyridyl)-L-alanine; SITE 11: note = alpha-methyl-L-serine; SITE 13: note = alpha-methyl-leucine; SITE 16: note = L-ornithine; SITE 17: note = Lysine is chemically mo) [Example 1196] stay below 400 nM?
output: satisfied

input: Does the reported cAMP Rel EC50 (in the presence of 1% HSA) of YXQGTFTSDFSKXLDKKAQXAFIEYLLEXGPSSGAPPPSGS (synthetic construct; SITE 2: note = 2-Aminoisobutyric Acid; SITE 13: note = alpha-methyl-leucine; SITE 17: note = Lysine is chemically modified through conjugation of the epsilon-amino group of the Lysine side chain with (2-[2-(2-Amino-ethoxy)-ethoxy]-acetyl)-(gamma-Glu)-CO-(CH2) 18-CO2H; SITE 20: n) [Example 45] stay below 400 nM?
output: not satisfied

input: Does the reported cAMP Rel EC50 (in the presence of 1% HSA) of YXQGTFTSDXSXXLDKKAQXAFIEYLLEAGPSSGAPPPSGX (non-natural residues; lipidated Lys; C-terminal amide; synthetic construct; SITE 2: note = 2-Aminoisobutyric Acid; SITE 10: note = 3-(4-Pyridyl)-L-alanine; SITE 12: note = L-ornithine; SITE 13: note = alpha-methyl-leucine; SITE 17: note = Lysine is chemically modified through conjugation of the epsilon-amino group of the Lysine side chain with (2-[2-(2-) [Example 274] stay below 400 nM?
output: not satisfied

input: Does the reported cAMP Rel EC50 (in the presence of 1% HSA) of YXQGTXTSDXXIXLDXKAQXEFIEXLVEGGPSSGAPPPESE (not fully specified; non-natural residues; lipidated Lys; C-terminal amide; synthetic construct; SITE 2: note = 2-Aminoisobutyric Acid; SITE 6: note = alpha-methyl-2-fluoro-L-phenylalanine; SITE 10: note = 3-(4-Pyridyl)-L-alanine; SITE 11: note = alpha-methyl-L-serine; SITE 13: note = alpha-methyl-leucine; SITE 16: note = L-ornithine; SITE 17: note = Lysine is chemically mo) [Example 1156] stay below 400 nM?
output: satisfied

input: Does the reported cAMP Rel EC50 (in the presence of 1% HSA) of YXQGTFTSDFSXXLDKKAQXAFIEWLLEXGHSSGAPPPSGE (Aib, Orn, αMeL; K acylated with (AEEA)2-γGlu-C18 diacid; C-amide; synthetic construct; SITE 2: note = 2-Aminoisobutyric Acid; SITE 12: note = L-ornithine; SITE 13: note = alpha-methyl-leucine; SITE 17: note = Lysine is chemically modified through conjugation of the epsilon-amino group of the Lysine side chain with (2-[2-(2-Amino-ethoxy)-ethoxy]-acetyl)2-(gamma-Glu)) [Example 266] stay below 400 nM?
output: not satisfied

input: Does the reported cAMP Rel EC50 (in the presence of 1% HSA) of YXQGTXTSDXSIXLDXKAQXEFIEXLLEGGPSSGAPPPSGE (non-natural residues, C-terminal amide, acylated Lys with fatty diacid; synthetic construct; SITE 2: note = 2-Aminoisobutyric Acid; SITE 6: note = alpha-methyl-2-fluoro-L-phenylalanine; SITE 10: note = 3-(4-Pyridyl)-L-alanine; SITE 13: note = alpha-methyl-leucine; SITE 16: note = L-ornithine; SITE 17: note = Lysine is chemically modified through conjugation of the epsil) [Example 613] stay below 400 nM?
output: not satisfied

input: Does the reported cAMP Rel EC50 (in the presence of 1% HSA) of YXQGTFTSDFSXXLDKKAQXAFIEWLLEGGHSSGAPPPGGE (Aib, Orn, alpha-methyl-Leu, lipidated Lys, C-terminal amide; synthetic construct; SITE 2: note = 2-Aminoisobutyric Acid; SITE 12: note = L-ornithine; SITE 13: note = alpha-methyl-leucine; SITE 17: note = Lysine is chemically modified through conjugation of the epsilon-amino group of the Lysine side chain with (2-[2-(2-Amino-ethoxy)-ethoxy]-acetyl)-(gamma-Glu)) [Example 273] stay below 400 nM?
output: not satisfied
